Every entry's value here was drawn from ChEMBL document CHEMBL4145585.

test system: SH-SY5Y; assay: Cytotoxicity against human SH-SY5Y cells assessed as decrease in cell viability after 24 hrs by MTT assay; type: functional, cell-based
pIC50: −log10 of the molar value.
Reported pIC50 values follow for various compounds
assay metric: pIC50

• CCCCC[C@H]1OC(=O)[C@H]([C@@H](C)CC)N(C)C(=O)[C@@H]2CCCN2C(=O)[C@H](Cc2ccccc2)OC(=O)[C@H](C(C)C)N(C)C(=O)[C@H](C(C)C)NC(=O)[C@H]1C = 5.22
• C=CCCC[C@H]1OC(=O)[C@H]([C@@H](C)CC)N(C)C(=O)[C@@H]2CCCN2C(=O)[C@H](Cc2ccccc2)OC(=O)[C@H](C(C)C)N(C)C(=O)[C@H](C(C)C)NC(=O)[C@H]1C = 4.85
